tested_system: PAF receptor on washed human platelets (Homo sapiens, UniProt P25105)
Construct: endogenous in cells; host or cells: human blood platelets (thrombocytes) from healthy donors, purified by Sepharose CL-2B chromatography
Sequence (P25105 whole entry): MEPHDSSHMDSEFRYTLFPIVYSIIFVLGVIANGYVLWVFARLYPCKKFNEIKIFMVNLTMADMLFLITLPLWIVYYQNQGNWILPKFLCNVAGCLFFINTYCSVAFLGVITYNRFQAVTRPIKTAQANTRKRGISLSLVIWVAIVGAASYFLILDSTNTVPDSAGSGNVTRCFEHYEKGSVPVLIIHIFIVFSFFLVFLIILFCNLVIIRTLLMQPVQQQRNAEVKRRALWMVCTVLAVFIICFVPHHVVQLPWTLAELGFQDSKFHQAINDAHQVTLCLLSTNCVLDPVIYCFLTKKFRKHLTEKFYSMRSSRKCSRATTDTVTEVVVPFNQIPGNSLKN
method_notes: [^3 H]PAF-receptor binding to vital human blood platelets
test_context: vital human thrombocytes
endpoint_label: pKi
Just so you know, pKi here is -log10 of the concentration in molar units; reply with that number alone.

Record excerpt, results attached:
- compound: "COc1ccc(C(=O)N2CCc3c(sc4c3C(c3ccccc3Cl)=NC(C)c3nnc(C)n3-4)C2)cc1 (stereo not drawn) [Example 29]"
  pKi: 8.11
- compound: "Cc1ccc(C(=O)N2CCc3c(sc4c3C(c3ccccc3Cl)=NC(C)c3nnc(C)n3-4)C2)cc1 (stereo not drawn) [Example 20]"
  pKi: 7.66
- compound: "CCc1ccc(C(=O)N2CCc3c(sc4c3C(c3ccccc3Cl)=NC(C)c3nnc(C)n3-4)C2)cc1 (stereo not drawn) [Example 82]"
  pKi: 8.60

# get_value(readout='pKi', item= Cc1nnc2n1-c1sc3c(c1C(c1ccccc1Cl)=NC2C)CCN(C(=O)c1ccc(Cl)cc1)C3 (stereo not drawn) [Example 1a] )
8.72

Return reported pKi; argument: Cc1nnc2n1-c1sc3c(c1C(c1ccccc1Cl)=NC2C)CCN(C(=O)c1ccc(Cl)cc1)C3 (stereo not drawn) [Example 1b]
7.15

Item under review: Cc1nnc2n1-c1sc3c(c1C(c1ccccc1Cl)=NC2C)CCN(C(=O)c1ccc(Cl)cc1)C3 (stereo not drawn) [Example 1] . Reported pKi?
8.54

Please look up its pKi: Cc1nnc2n1-c1sc3c(c1C(c1ccccc1Cl)=NC2C)CCN(C(=O)C(C)(C)C)C3 (stereo not drawn) [Example 73]
8.00

Please give the measured pKi for this compound: Cc1nnc2n1-c1sc3c(c1C(c1ccccc1Cl)=NC2C)CCN(C(=O)c1ccc(C(C)(C)C)cc1)C3 (stereo not drawn) [Example 25]
8.62

Can you share its pKi? I mean this compound: Cc1nnc2n1-c1sc3c(c1C(c1ccccc1Cl)=NC2C)CCN(C(=O)c1ccc(C(F)(F)F)cc1)C3 (stereo not drawn) [Example 67]
8.55
